- Target of assay: RPA WT (RPA70-RPA32-RPA14) (human, UniProt P27694;P15927;P35244 1-616;1-270;1-121)
- Sequence (P27694 whole entry, chain 1 of 3): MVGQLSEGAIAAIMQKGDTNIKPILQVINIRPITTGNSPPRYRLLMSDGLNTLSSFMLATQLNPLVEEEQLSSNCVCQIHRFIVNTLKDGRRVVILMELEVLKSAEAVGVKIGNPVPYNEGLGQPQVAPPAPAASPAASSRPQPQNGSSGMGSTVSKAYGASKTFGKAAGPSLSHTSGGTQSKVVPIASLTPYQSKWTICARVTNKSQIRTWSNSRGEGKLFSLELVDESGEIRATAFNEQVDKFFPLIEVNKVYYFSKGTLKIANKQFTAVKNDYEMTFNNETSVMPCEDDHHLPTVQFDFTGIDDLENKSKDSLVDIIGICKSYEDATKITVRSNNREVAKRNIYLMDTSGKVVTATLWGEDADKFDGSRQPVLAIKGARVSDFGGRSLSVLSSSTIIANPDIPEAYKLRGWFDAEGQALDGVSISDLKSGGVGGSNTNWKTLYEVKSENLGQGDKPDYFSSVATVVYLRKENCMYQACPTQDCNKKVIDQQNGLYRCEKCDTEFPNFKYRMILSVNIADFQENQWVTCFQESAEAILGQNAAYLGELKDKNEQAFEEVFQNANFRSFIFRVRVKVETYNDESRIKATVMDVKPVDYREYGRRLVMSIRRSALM
- Sequence (P15927 whole entry, chain 2 of 3): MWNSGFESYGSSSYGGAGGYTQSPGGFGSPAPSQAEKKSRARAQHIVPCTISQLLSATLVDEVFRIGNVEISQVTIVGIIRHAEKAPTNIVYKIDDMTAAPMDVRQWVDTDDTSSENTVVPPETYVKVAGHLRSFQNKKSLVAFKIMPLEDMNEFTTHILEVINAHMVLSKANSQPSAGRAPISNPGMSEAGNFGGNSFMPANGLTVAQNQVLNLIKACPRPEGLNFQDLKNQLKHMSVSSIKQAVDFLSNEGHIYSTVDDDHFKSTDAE
- Sequence (P35244 whole entry, chain 3 of 3): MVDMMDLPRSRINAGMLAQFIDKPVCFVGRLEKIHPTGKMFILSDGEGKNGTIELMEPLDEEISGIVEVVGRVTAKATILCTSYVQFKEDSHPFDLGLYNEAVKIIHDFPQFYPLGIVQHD
- Experiment: fluorescence anisotropy; 200 mM LiCl; FA: 200 mM NaCl, KCl or LiCl, 20 mM HEPES pH 7.4, 1 mM DTT, 22-25 C, 375 or 750 pM oligo, Kd,app +/- SEM; EMSA: 20 mM HEPES pH 7.4, 200 mM KCl, 1 nM 32P oligo
- Condition context: protein: recombinant; tags: 6xHis N-term on RPA70 and RPA14; copies: 1;1;1; label: 5' fluorescein; intramolecular G4 in middle; linear in LiCl
Experimental readout: Kd (nM)

Binder	Experimental readout	Meas value
AGTGTGAGTTAGGGTTAGGGTTAGGGTTAGGGTGAGTGTG (structured_DNA) [Tel40 Middle G4]	Kd	0.61

Data provenance: paper PMC10250233
